Values were extracted from patent US20250228873A1.

# Study target: PTPRC/CD45 (Homo sapiens)
# Construct: purchased Recation Biology Inc
# Sequence (P08575 26-1306): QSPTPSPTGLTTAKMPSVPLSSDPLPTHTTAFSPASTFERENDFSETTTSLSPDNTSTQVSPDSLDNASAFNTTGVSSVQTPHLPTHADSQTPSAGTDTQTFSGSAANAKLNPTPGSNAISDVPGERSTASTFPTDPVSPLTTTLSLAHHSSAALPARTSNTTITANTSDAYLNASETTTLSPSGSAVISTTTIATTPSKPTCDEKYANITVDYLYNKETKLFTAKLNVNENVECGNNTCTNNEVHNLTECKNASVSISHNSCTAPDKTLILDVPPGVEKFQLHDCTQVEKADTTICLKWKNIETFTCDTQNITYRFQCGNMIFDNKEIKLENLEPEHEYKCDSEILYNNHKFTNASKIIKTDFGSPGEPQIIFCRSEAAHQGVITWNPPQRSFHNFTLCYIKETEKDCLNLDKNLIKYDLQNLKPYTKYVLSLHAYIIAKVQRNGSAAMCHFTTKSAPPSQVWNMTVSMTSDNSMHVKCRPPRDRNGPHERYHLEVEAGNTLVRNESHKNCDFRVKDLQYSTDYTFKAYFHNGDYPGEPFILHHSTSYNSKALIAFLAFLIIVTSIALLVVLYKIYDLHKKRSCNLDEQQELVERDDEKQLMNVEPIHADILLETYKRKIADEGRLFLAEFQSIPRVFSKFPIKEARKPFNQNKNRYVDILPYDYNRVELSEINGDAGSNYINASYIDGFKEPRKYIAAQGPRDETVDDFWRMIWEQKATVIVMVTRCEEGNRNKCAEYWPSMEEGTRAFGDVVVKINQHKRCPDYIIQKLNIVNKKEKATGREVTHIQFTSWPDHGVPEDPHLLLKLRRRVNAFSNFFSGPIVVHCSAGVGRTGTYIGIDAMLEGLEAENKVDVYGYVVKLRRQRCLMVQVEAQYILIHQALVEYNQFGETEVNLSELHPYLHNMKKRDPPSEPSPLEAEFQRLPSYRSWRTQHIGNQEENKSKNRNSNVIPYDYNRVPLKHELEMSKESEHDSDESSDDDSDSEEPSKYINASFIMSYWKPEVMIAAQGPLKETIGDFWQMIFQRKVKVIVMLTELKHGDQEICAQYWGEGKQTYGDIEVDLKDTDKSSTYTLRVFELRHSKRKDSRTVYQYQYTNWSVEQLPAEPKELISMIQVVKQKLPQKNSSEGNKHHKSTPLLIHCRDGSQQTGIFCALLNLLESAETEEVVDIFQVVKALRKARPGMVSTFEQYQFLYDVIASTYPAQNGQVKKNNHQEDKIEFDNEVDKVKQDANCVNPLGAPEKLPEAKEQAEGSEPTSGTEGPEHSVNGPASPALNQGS
# Assay comment: Phosphatase panel, DiFMUP fluorescence assay
# Assay type: biochemical
# Run parameters: Table 5B; read-out: Compound IC50 (M) PTPRC/CD45
Readout: IC50

INSERT INTO assay_data (molecule, reported_measurement) VALUES
  ('CC(C)[C@@H](CC[C@@H](C)[C@H]1CC[C@H]2[C@@H]3[C@H](O)C[C@H]4C[C@@H](NCCCNCCCCNCCCN)CC[C@]4(C)[C@H]3CC[C@]12C)OS(=O)(=O)O (single isomer, unassigned)', '4.94e-07 M'),
  ('CCc1oc2cc(S(=O)(=O)Nc3ccc(S(=O)(=O)Nc4nccs4)cc3)ccc2c1C(=O)c1cc(Br)c(O)c(Br)c1 [PTP1B Inhibitor, reference compound]', '5.7e-05 M'),
  ('CC(CCC[C@@H](C)[C@H]1CCC2C3C(CC[C@@]21C)[C@@]1(C)CC[C@H](NCCCNCCCCNCCCN)C[C@@H]1C[C@H]3O)C(=O)O (single isomer, unassigned)', '5.71e-07 M');
